Catalogue of DC50 values
molecular target: HiBit-BRM fusion protein (Homo sapiens); construct: expressed in transfected cells; assay: HiBiT-BRM cell-based degradation assay (Nano-Glo HiBiT Lytic Detection); conditions: stable HeLa cell line expressing HiBiT-BRM, 24 h incubation; read-out: BRM HiBit Degradation IC50

Recorded DC50 of Cc1ncsc1-c1ccc([C@H](C)NC(=O)[C@@H]2C[C@@H](O)CN2C(=O)[C@@H](c2cc(C3CCN(C(=O)[C@@H]4CCc5sc6nnc(-c7ccccc7O)cc6c5C4)CC3)no2)C(C)C)cc1 , please. ≥ 1000 nM

Recorded DC50 of Cc1ncsc1-c1ccc([C@H](C)NC(=O)[C@@H]2C[C@@H](O)CN2C(=O)[C@@H](c2cc(OCCN3CCN(c4sc5nnc(-c6ccccc6O)cc5c4C)CC3)no2)C(C)C)cc1 , please. < 10 nM

Recorded DC50 of Cc1ncsc1-c1ccc([C@H](C)NC(=O)[C@@H]2C[C@@H](O)CN2C(=O)[C@@H](c2cc(OCCN3CC(c4cc5nnc(-c6ccccc6O)cc5s4)C3)no2)C(C)C)cc1 , please. ≥ 10 nM

Recorded DC50 of Cc1ncsc1-c1ccc([C@H](C)NC(=O)[C@@H]2C[C@@H](O)CN2C(=O)[C@@H](c2cc(N3CCN(C(=O)CN4CC(c5cc6cc(-c7ccccc7O)nnc6s5)C4)CC3)no2)C(C)C)cc1 , please. ≥ 100 nM

Recorded DC50 of Cc1ncsc1-c1ccc([C@H](C)NC(=O)[C@@H]2C[C@@H](O)CN2C(=O)[C@@H](c2cc(OCCN[C@H]3CCc4sc5nnc(-c6ccccc6O)cc5c4C3)no2)C(C)C)cc1 , please. ≥ 1000 nM

Next:
Recorded DC50 of Cc1ncsc1-c1ccc([C@H](C)NC(=O)[C@@H]2C[C@@H](O)CN2C(=O)[C@@H](c2cc(N3CCC(N4CCC(c5sc6nnc(-c7ccccc7O)cc6c5C)CC4)CC3)no2)C(C)C)cc1 , please. < 10 nM

Recorded DC50 of Cc1ncsc1-c1ccc(CNC(=O)[C@@H]2C[C@@H](O)CN2C(=O)[C@@H](NC(=O)CCCCC(=O)N2CCC(c3cc4nnc(-c5ccccc5O)cc4s3)CC2)C(C)(C)C)cc1 , please. ≥ 100 nM

Recorded DC50 of Cc1ncsc1-c1ccc([C@H](C)NC(=O)[C@@H]2C[C@@H](O)CN2C(=O)[C@@H](c2cc(OCCN3CCC(c4csc5nnc(-c6ccccc6O)cc45)CC3)no2)C(C)C)cc1 , please. ≥ 1000 nM

Recorded DC50 of Cc1ncsc1-c1ccc([C@H](C)NC(=O)[C@@H]2C[C@@H](O)CN2C(=O)[C@@H](c2cc(OCCN3CCC(c4cc5cc(-c6ccccc6O)nnc5s4)CC3)no2)C(C)C)cc1 , please. ≥ 10 nM

Recorded DC50 of Cc1ncsc1-c1ccc([C@H](C)NC(=O)[C@@H]2C[C@@H](O)CN2C(=O)[C@@H](c2cc(OCCN3CCC(c4c(C)sc5nnc(-c6ccccc6O)cc45)CC3)no2)C(C)C)cc1 , please. ≥ 1000 nM

====

target: HiBit-BRM fusion protein (Homo sapiens, UniProt P51531); construct: expressed in transfected cells; experiment: HiBiT-BRM cell-based degradation assay (Nano-Glo HiBiT Lytic Detection); settings: stable HeLa cell line expressing HiBiT-BRM, 24 h incubation; read-out: BRM HiBit Degradation IC50
Sequence (P51531 whole entry, the tested form may be a part): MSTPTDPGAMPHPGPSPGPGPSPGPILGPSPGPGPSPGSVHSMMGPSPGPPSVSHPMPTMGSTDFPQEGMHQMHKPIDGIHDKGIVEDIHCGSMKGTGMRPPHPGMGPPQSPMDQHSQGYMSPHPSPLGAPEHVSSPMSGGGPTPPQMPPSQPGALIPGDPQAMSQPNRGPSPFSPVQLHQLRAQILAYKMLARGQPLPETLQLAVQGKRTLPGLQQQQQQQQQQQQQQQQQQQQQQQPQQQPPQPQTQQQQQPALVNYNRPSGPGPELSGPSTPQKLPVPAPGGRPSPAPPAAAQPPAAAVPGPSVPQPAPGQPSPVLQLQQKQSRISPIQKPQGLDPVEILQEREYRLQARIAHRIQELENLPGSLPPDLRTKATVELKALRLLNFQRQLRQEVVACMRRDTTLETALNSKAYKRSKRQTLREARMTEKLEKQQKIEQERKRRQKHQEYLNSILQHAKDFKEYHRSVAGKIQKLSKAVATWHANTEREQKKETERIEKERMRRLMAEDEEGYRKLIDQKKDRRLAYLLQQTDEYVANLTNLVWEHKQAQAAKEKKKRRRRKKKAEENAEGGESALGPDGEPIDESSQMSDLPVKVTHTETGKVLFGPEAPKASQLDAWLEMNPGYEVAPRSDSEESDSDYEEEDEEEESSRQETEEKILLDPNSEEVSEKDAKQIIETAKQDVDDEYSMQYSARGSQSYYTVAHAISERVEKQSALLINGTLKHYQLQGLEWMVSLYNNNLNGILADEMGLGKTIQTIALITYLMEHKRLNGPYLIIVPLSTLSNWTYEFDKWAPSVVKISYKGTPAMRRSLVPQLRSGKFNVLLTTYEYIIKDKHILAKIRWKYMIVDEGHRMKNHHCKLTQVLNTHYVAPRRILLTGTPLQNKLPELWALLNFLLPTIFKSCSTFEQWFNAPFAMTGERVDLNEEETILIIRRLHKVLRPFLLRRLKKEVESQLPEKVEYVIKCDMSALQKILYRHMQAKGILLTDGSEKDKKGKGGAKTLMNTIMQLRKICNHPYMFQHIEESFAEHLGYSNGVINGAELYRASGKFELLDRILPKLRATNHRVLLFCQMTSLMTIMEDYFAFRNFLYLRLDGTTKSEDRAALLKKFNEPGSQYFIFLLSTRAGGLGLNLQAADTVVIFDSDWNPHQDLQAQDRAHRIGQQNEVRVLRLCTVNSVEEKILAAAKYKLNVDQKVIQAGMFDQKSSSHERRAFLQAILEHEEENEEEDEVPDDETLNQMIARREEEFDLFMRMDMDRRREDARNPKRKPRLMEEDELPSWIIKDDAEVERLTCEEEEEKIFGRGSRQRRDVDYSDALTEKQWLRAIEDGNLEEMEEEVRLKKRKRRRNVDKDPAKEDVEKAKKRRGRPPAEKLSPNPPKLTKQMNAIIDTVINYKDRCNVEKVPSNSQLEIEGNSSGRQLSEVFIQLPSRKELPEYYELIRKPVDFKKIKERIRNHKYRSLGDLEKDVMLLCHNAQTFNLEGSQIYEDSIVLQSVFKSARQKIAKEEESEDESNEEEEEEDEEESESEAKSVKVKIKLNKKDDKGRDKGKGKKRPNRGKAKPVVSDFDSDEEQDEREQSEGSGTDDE
Catalogue of DC50 values

# count of solved cases: 3
Recorded DC50 of Cc1ncsc1-c1ccc([C@H](C)NC(=O)[C@@H]2C[C@@H](O)CN2C(=O)[C@@H](c2cc(OCCN3CCC(N4CCC(c5sc6nnc(-c7ccccc7O)cc6c5C)CC4)CC3)no2)C(C)C)cc1 , please. ≥ 0.01 µM

Recorded DC50 of Cc1ncsc1-c1ccc(CNC(=O)[C@@H]2C[C@@H](O)CN2C(=O)[C@@H](NC(=O)C2(F)CC2)C(C)(C)C)c(OCCCN2CCC(c3cc4nnc(-c5ccccc5O)cc4s3)CC2)c1 , please. ≥ 0.01 µM

Recorded DC50 of Cc1ncsc1-c1ccc([C@H](C)NC(=O)[C@@H]2C[C@@H](O)CN2C(=O)[C@@H](NC(=O)c2cnc(N3CCC(c4sc5nnc(-c6ccccc6O)cc5c4C)CC3)nc2)C(C)(C)C)cc1 , please. ≥ 0.01 µM

Next:
Recorded DC50 of Cc1ncsc1-c1ccc([C@H](C)NC(=O)[C@@H]2C[C@@H](O)CN2C(=O)[C@@H](c2cc([C@H]3CC[C@H](N4CCC(c5sc6nnc(-c7ccccc7O)cc6c5C)CC4)CC3)no2)C(C)C)cc1 , please. ≥ 0.1 µM

Recorded DC50 of Cc1ncsc1-c1ccc([C@H](C)NC(=O)[C@@H]2C[C@@H](O)CN2C(=O)[C@@H](c2cc(N3C[C@@H]4C[C@H]3CN4C(=O)[C@@H]3CCc4sc5nnc(-c6ccccc6O)cc5c4C3)no2)C(C)C)cc1 , please. ≥ 0.1 µM

Recorded DC50 of Cc1ncsc1-c1ccc(CNC(=O)[C@@H]2C[C@@H](O)CN2C(=O)[C@@H](NC(=O)CCCC(=O)N2CC(c3cc4cc(-c5ccccc5O)nnc4s3)C2)C(C)(C)C)cc1 , please. ≥ 0.1 µM
